A collection of compounds and their measured relative viability
- Tested on: NCI-H1651
- Assay procedure: relative viability (nuclei count vs DMSO), 5 days (fraction); higher = more cells survive
- Assay context: first compound 0.1 µM
Readout name: relative viability

O=c1cc(N2CCOCC2)oc2c(-c3cccc4c3sc3ccccc34)cccc12 + CC(C)C[C@H](NC(=O)[C@H](Cc1ccccc1)NC(=O)c1cnccn1)B(O)O [Bortezomib] (partner 0.002 µM)	0.952
CCN(CC)CCCCNc1ncc2cc(-c3cc(OC)cc(OC)c3)c(NC(=O)NC(C)(C)C)nc2n1 + C[C@]1(O)C[C@@H](c2nc(-c3ccc4ccc(-c5ccccc5)nc4c3)c3c(N)nccn32)C1 [Linsitinib] (partner 1 µM)	1.28
